Target: T1, ROR1 extracellular domain Fc-fusion, dimer (human, UniProt Q01973 30-406)
T1 construct: also called ROR1 dimer; hROR1 dimeric ECD-Fc fusion protein; not shown: Fc part
T1 sequence (Q01973 30-406): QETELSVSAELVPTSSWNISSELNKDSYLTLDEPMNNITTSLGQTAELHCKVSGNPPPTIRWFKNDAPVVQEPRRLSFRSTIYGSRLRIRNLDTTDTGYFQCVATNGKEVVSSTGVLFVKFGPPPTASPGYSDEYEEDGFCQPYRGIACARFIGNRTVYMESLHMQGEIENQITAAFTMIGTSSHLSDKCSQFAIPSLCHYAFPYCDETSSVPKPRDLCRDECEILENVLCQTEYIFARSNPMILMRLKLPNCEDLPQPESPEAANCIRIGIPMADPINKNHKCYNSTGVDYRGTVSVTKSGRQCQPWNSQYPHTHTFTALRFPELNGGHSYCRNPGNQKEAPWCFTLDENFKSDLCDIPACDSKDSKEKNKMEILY
Assay: SPR, immobilised ROR1 dimer, antibody injected, 1:1 model
# label = bin(measured koff), where bins are Low (below 0.0008 s⁻¹), Medium (0.0008 s⁻¹ to below 0.002 s⁻¹), High (0.002 s⁻¹ or more)

BINDER	CLASSIFICATION
Antibody 601-103 (antibody, V domains shown) VH: EVQLVQSGGDLVQPGGSLRLSCAASGFTFSSYSMNWVRQAPGKGLEWVSSISSSSSYIYYADSVKGRFTISRDNAKNSLYLQMNSLRAEDTAVYYCARGLGGWTHDAFDIWGQGTTVTVSS VL: QSVLTQPASVSGSPGQSITISCTGTTSDVGGYNYVSWYQQHPGKAPKLMIYDVSKRPSGVSNRFSGSKSGNTASLTISGLQAEDEADYYCSSYTSSSTDVFGTGTKLTVL	High
Antibody 601-13 (antibody, V domains shown) VH: EVQLVQSGAEVKKPGSSVKVSCKASGGTFSTFAINWVRQAPGQGLEWMGGVIPVSGTEDYSQKFQGRLSLTADESTGTAYMELSSLRSDDTAVYYCARDRSGRDWDYFDYWGQGTLVTVSS VL: DIVMTQSPSSLSASVGDRVTITCQASQDISNYLNWYQQKPGKAPKLLIYDASNLETGVPSRFSGSGSGTDFIFTISSLQPEDIATYYCQQFDNLPYTFGQGTKVEIKR	Medium
Antibody 601-112 (antibody, V domains shown) VH: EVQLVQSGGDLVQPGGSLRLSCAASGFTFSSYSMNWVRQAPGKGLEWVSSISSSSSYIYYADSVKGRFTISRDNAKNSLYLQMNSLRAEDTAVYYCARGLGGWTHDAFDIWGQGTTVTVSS VL: QSALTQPASVSGSPGQSITISCTGTSSDVGGYNYVSWYQQHPGKAPKLMIYDVSKRPSGVSNRFSGSKSGNTASLTISGLQAEDEADYYCSSYTGRSTVFGGGTKLTVL	Low
Antibody 601-28 (antibody, V domains shown) VH: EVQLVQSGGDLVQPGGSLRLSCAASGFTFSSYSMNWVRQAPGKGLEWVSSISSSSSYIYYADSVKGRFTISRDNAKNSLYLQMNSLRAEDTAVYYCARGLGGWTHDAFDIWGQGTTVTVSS VL: QSALTQPASVSGSPGQSITISCTGTSSDVGGYNYVSWYQQHPGKAPKLMIFDVSNRPSGVSNRFSGSKSGNTASLTISGLQAEDEADYYCSSYTSSSTLFGGGTKLTVL	High
Antibody 601-100 (antibody, V domains shown) VH: EVQLVQSGGGVVQPGGPLRLSCAASGFTFSSYSMNWVRQAPGKGLEWVSSISSSSSYIYYADSVKGRFTISRDNAKNSLYLQMNSLRAEDTAVYYCARGLGGWTHDAFDIWGQGTMVTVSS VL: QSALTQPASVSGSPGQSITISCTGTSRDVGGYDYVSWYQQYPGNAPKLMIYDVSRRPSGVSHRFSASKSGNTASLTISGLQTEDEADYYCSSYTSSSTRVFGGGTKVTVL	Medium
Antibody 601-149 (antibody, V domains shown) VH: EAQLVESGGGLVKPGGSLRLSCAASGFTFSDYYMGWVRQAPGKGLKWLSYISDRAHTIYDTDSVKGRFTISRDDAKSSLYLRMNNLRVEDTAVYYCARAVGAGEGFDYWGQGTLVTVSS VL: DIQLTQSPSSLSASVGDRVTITCQASQDVRNYLNWYQQKPGKAPNLLIYDATNLESGVPSRFSGSGSGTDFTFTISSLQPEDFATYYCQQYDNLPLSFGGGTKVEIK	Low
Antibody 601-4 (antibody, V domains shown) VH: EVQLVQSGPGLVKPSGTLSLTCAVSGGSISSSNWWSWVRQPPGKGLEWIGEIYHSGSTNYNPSLKSRVTISVDKSKNQFSLKLGSVTAADTATYYCARDLWLGEWDLWGQGTLVTVSS VL: QSVLTQPPSASGAPGQRVTISCSGGISNVGTNGVNWYQHLPGTAPKLLVDAMNQRPSGVPDRFSGSRSGTSGSLAITGLRSEDEADYYCATWDDSLSGVLFGGGTKLTVLG	Low
Antibody 601-70 (antibody, V domains shown) VH: EVQLVQSGAELKKPGSSVRVSCKTSGGSFKTHGISWVRQAPGQGLEWMGWINPNSGGALYVDNFQGRATMTRDTSINTAYMELRSLSSDDTAVYYCARGMADLIDVFDIWGQGTMVTVSS VL: TQPALTQPASVSGSPGQSITISCTGTSSDFGDYDYVSWYQQHPGKAPKLMIYDVSDRPSGVSNRFSGSKSGNTASLTISGLQAEDEADYFCSSFTTSSTLVFGGGTKLTVL	High
Antibody 601-130 (antibody, V domains shown) VH: EVQLVETGGGLVKPGGSLRLSCEASGFSLSSYSMNWVRQAPGKGLEWVSSISSSSTHIYYADSLKGRFTISRDNAKNSLFLQMDNLRAEDTAVYYCARATIGFDYWGQGTLVTVSS VL: QSVLTQPPSVSGAPGQRVTISCTGSSSNIGAGYDVHWYQQLPGTAPKLLIYGNSNRPSGVPDRFSGSKSGTSASLAITGLQAEDEADYYCQSYDSSLSGYVFGTGTKLTVL	Medium
Antibody 601-87 (antibody, V domains shown) VH: QVQLQESGPGLVKSSETLSLTCTVSGGSMNNYYWSWIRQPAGKGLEWMGRIYSSGSTNYNPALKSRVTMSVDTSKNQFSLNLSSVTAADTAIYYCARASWSGTYWALFDYWGQGTLVTVSS VL: ETTLTQSPAFMSATPGDKVNISCKASQDIDDDLNWYQQKPGEAPILIIQEATTLVPGIPPRFSGSGFGTDFTLTINSMQSEDVAYYFCLQHDNFPPTFGQGTKVEIK	Low

Source of measurements: patent US20180009892A1
